Listed next: entries and their corresponding z-score.
# TEST SUMMARY: growth of efflux-deficient E. coli DRC39 – strain DRC39, OD650, 48 h, E. coli filamentation inducers, primary screen (AID 1179);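 further: screen aims at cell division blockers that make cells filament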
# ASSAY CONDITIONS: E. coli DRC39 delta-acrAB growth, higher = more signal, called active from +8 up or from −8 down
Active and inactive are the calls of the source.
RECORDED METRIC: z-score

O=C1NC(=O)C2C1C=CC(C(O)c1ccc3c(c1)OCO3)N2Nc1ccc(Cl)cc1Cl (stereo unspecified)    -2.73 (inactive)
NCCCCCCNC(=O)[C@H]1C[C@H]2C(=O)N3CCC[C@H]3C(=O)N2[C@H]1c1ccc(O)cc1    -0.676 (inactive)
CN1C(=O)C2C=CC(C(O)c3ccc(F)cc3)N(N3CCCCC3)C2C1=O (stereo unspecified)    -0.837 (inactive)
[N-]=[N+]=Nc1ccccc1C[C@]1(C(=O)NCCN2CCOCC2)N=C(c2ccc(OCCCO)cc2)O[C@H]1c1ccccc1N=[N+]=[N-]    1.31 (inactive)
O=c1c2ccc(Br)cc2nc(-c2ccccc2)n1Cc1cccc(O)c1    0.39 (inactive)
CCOc1cc(C(O)C2C=CC3C(=O)NC(=O)C3N2Nc2ccccn2)ccc1O (stereo unspecified)    -0.0662 (inactive)
O=C(C=C(CC(O)c1cccc(Cl)c1)OCCF)OCCF (stereo unspecified)    1.04 (inactive)
CCCNC(=O)[C@@]1(Sc2ccc(C)cc2)CC(=O)N(Cc2ccccc2)[C@@H]1c1ccc(CO)cc1I    0.0547 (inactive)
Cc1ccc(N2C(=O)c3ccccc3[C@](C)(C(=O)NC(C)C)[C@@H]2c2ccc(CO)cc2)nc1    -0.111 (inactive)
COC(=O)[C@]1(Cc2ccccc2CN=[N+]=[N-])N=C(c2ccc(OCCCO)cc2)O[C@@H]1c1ccccc1CN=[N+]=[N-]    1.6 (inactive)
COc1ccc(C(=O)Nc2ccc(CN3C(=O)[C@]4(O[C@H](CCn5cc([C@H](O)c6ccccc6)nn5)[C@@H]([Si](C)(C)c5ccc(OC)cc5)[C@@H]4C)c4ccccc43)cc2)cc1    0.63 (inactive)
C=CCN1C(=O)[C@@]2(O[C@@H](CCO)[C@H]([Si](C)(C)c3ccc(OC)cc3)[C@H]2C)c2cc(NC(=O)[C@H](C)O)ccc21    0.403 (inactive)
COCCCNC(=O)[C@@]1(Cc2ccccc2)COC(c2ccc(OCCCO)cc2)=N1    0.993 (inactive)
CCOC(=O)C[C@H]1[C@H](OC(=O)Cc2ccc3c(c2)OCO3)[C@@H](NC(=O)c2ccccc2)c2cc(OCCCO)ccc2N1C(=O)c1ccccc1    0.676 (inactive)
COC(=O)[C@@]1(Cc2ccc(OC)cc2)[C@H]2c3cc(C(=O)N4CCCC4)n(Cc4ccc(C)o4)c3C[C@H]2CN1C(=O)c1ccccc1    -0.726 (inactive)
COc1ccc(CCNC(=O)[C@@H]2c3ccccc3C(=O)N(Cc3ccccc3C(F)(F)F)[C@H]2c2ccc(CO)cc2)cc1    0.633 (inactive)

---

Listed compounds paired with reported composite z-score
# TEST SUMMARY: small molecules captured by biotinylated probe aFGF2 – biochemical, small-molecule microarray, fluorescence 635/667, stem cell growth factor project, primary screen (AID 1067);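 further: measures binding of biotinylated aFGF2 protein to printed compounds on slides; z-score merges feature fluorescence and signal-to-noise across triplicate slides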
# ASSAY CONDITIONS: higher = more signal
RECORDED METRIC: composite z-score

N#Cc1ccc(NN2C(C(O)c3ccco3)C=CC3C(=O)N(c4ccccc4)C(=O)C32)cc1 (centres undefined)    -0.0133
COc1ccc([Si](C)(C)[C@H]2[C@H](CC(=O)N3CCC[C@H]3CO)O[C@@]3(C(=O)N(Cc4ccc(N5C(=O)c6cccc7cccc5c67)cc4)c4ccccc43)[C@@H]2C)cc1    -0.071
C=CC[C@@]1(C(=O)NCC(O)CO)N=C(c2ccc(OCCCO)cc2)O[C@@H]1c1ccccc1 (some centres undefined)    0.255
CCOC(=O)C[C@H]1[C@H](OC(=O)Cc2ccc3c(c2)OCO3)[C@@H](NC(=O)c2ccccc2)c2cc(OCCCO)ccc2N1C(=O)c1ccc2ccccc2n1    -0.147

---

# Tested on: Fibrinogen (Alexa647-labelled)
# TEST SUMMARY: Alexa647-fibrinogen binding to printed small molecules – biochemical, small-molecule microarray, 635/667 nm fluorescence, artefact control for SMM control-protein annotation, profiling panel (AID 1131);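 further: z-score merges 667 nm fluorescence with per-spot signal-to-noise over triplicate slides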
# ASSAY CONDITIONS: fibrinogen-A647 binding fluorescence, higher = more signal
Would you mind labelling by composite z-score? At or over 0.7 is Criterion met, under is Criterion not met.

CCCCCCCCCCC(O)C1C=CC2C(=O)NC(=O)C2N1Nc1ccccn1 (stereo not given)    Criterion not met
O=C(O)[C@@]1(Cc2ccccc2)COC(c2ccc(OCCCO)cc2)=N1    Criterion not met
CN(C)CCCCCCNC(=O)[C@@H]1C[C@@H]2C(=O)NCC(=O)N2[C@@H]1c1ccc(O)cc1    Criterion met
COC(=O)C(CC#Cc1ccc2c(c1)[C@]1(C(=O)N2)[C@H](c2ccccc2OCCO)N2[C@H](c3ccccc3)[C@H](c3ccccc3)OC(=O)[C@H]2[C@@H]1C(=O)Nc1nc2ccccc2s1)C(=O)OC    Criterion met
N#Cc1ccc(NN2C(C(O)c3ccccc3)C=CC3C(=O)N(c4ccccc4)C(=O)C32)cc1 (stereo not given)    Criterion not met
CCOC(=O)C[C@H]1[C@H](OC(=O)c2cc3ccccc3oc2=O)[C@@H](NC(=O)c2ccc3ccccc3n2)c2cc(OCCCO)ccc2N1C(=O)c1ccc2ccccc2n1    Criterion not met
O=C1c2ccccc2C(=O)C2CC([C@H]3Oc4ccccc4S(=O)(=O)N4CCC[C@@H]34)=CCC12 (stereo not given in full)    Criterion met
CC(=O)NCCCC[C@@H]1NC(=O)[C@@H]2C[C@H](C(=O)NCCCC[N+](C)(C)C)[C@H](c3cccc(OCCO)c3)N2C1=O    Criterion not met
C=C(C)[C@@H]1CC=C(C(O)C2C=CC3C(=O)N(C4CCCCC4)C(=O)C3N2Nc2ccc(OC)cc2)CC1 (stereo not given in full)    Criterion met
C/C=C/[C@@H](CCn1cc([C@H](O)c2ccccc2)nn1)[Si](C)(C)c1ccc(OC)cc1    Criterion not met
CC(C)c1ccc(NN2C(C(O)c3cccs3)C=CC3C(=O)N(c4ccccc4)C(=O)C32)cc1 (stereo not given)    Criterion met
O=C1OCC=C[C@H]2OC34C=CCN(CCN5CCOCC5)C(=O)[C@H]3N(CCCCCO)C(=O)[C@@H]4[C@@H]12 (stereo not given in full)    Criterion not met
C=CCNC(=O)[C@@H]1[C@H]2C(=O)O[C@H](c3ccccc3)[C@H](c3ccccc3)N2[C@H](c2ccc(O)cc2)[C@@]12C(=O)Nc1ccc(C#CCCO)cc12    Criterion not met
Cc1ccccc1C(O)C1C=CC2C(=O)N(C)C(=O)C2N1Nc1ccc([N+](=O)[O-])cc1[N+](=O)[O-] (stereo not given)    Criterion met
COCCOC(=O)N1C(=O)[C@@]2(c3ccccc31)[C@H](c1ccccc1OCCO)N1[C@H](c3ccccc3)[C@H](c3ccccc3)OC(=O)[C@H]1[C@@H]2C(=O)N1CCc2cc(OC)c(OC)cc2C1    Criterion not met

---

# TEST SUMMARY: probe aCHRDL2 binding to arrayed compounds – biochemical, biotinylated probe, 635/667 nm fluorescence, primary screen (AID 1100)
# ASSAY CONDITIONS: small-molecule microarray, higher = more signal
RECORDED METRIC: composite z-score

CCCNC(=O)[C@@]1(Sc2ccc(C)cc2)CC(=O)N(Cc2ccccc2)[C@@H]1c1ccc(CO)cc1I    0.484
COc1ccc(C(=O)Nc2ccc3c(c2)[C@]2(O[C@@H](CCO)[C@H]([Si](C)(C)c4ccc(OC)cc4)[C@H]2C)C(=O)N3Cc2ccccc2)cc1    -0.0221
COc1ccc(CCNC(=O)[C@@H]2c3ccccc3C(=O)N(Cc3ccccc3C(F)(F)F)[C@H]2c2ccc(CO)cc2)cc1    0.946
COCCOC(=O)N1C(=O)[C@@]2(c3cc(C#CCC(C(=O)OC)C(=O)OC)ccc31)[C@H](C(=O)N1CCCCCCC1)[C@H]1C(=O)O[C@H](c3ccccc3)[C@H](c3ccccc3)N1[C@@H]2c1ccc(O)cc1    1.41

---

# Tested on: wheat germ agglutinin (Triticum aestivum), Alexa647-labelled
# TEST SUMMARY: Alexa647-WGA lectin binding to printed small molecules – biochemical, small-molecule microarray, 635/667 nm fluorescence, artefact control for SMM control-protein annotation, profiling panel (AID 1140);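 further: score merges 667 nm feature emission with signal to noise over triplicate slides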
# ASSAY CONDITIONS: WGA-A647 binding, 635 nm fluorescence, higher = more signal
If the reported composite z-score equals or exceeds 0.9, assign YES. If not, assign NO.

O=C1c2ccccc2[C@](Cc2ccccc2I)(C(=O)NC2CC2)[C@H](c2ccc(CO)cc2)N1Cc1ccccc1Cl    NO
CC1CC/C=C\[C@H]2OC34C=CCN(Cc5ccccc5)C(=O)[C@H]3N(CCO)C(=O)[C@@H]4C2C(=O)O1 (stereo partly specified)    NO
CCC[C@@H]1C[C@@]1(CCC)[C@@H](NC(=O)c1ccco1)c1ccc(Cl)cc1    NO
COCCCNC(=O)[C@@H]1c2ccccc2C(=O)N(c2ccc(C)cn2)[C@H]1c1ccc(CO)cc1    NO
NC(=O)NCC#Cc1ccc2c(c1)[C@]1(C(=O)N2)[C@H](c2ccc(O)cc2)N2[C@H](c3ccccc3)[C@H](c3ccccc3)OC(=O)[C@H]2[C@@H]1C(=O)NC[C@H](O)c1ccccc1    NO
COC(=O)[C@@]1(Cc2ccc(OC)cc2)[C@H]2c3cc(C(=O)N(C)C)n(Cc4cc(C)n(C)n4)c3C[C@H]2CN1C(=O)c1ccccc1    NO
N#Cc1ccc(NN2C(C(O)c3ccccc3)C=CC3C(=O)N(c4ccccc4)C(=O)C32)cc1 (stereo unspecified)    NO
C[N+](C)(C)CCCC[C@@H]1NC(=O)[C@H]2C[C@@H](C(=O)NCCCCCCN)[C@@H](c3cccc(OCCO)c3)N2C1=O    YES
[N-]=[N+]=NCc1ccccc1C[C@]1(C(=O)NCCN2CCOCC2)COC(c2ccc(OCCCO)cc2)=N1    NO
O=C1C2C=CC(C(O)c3ccc(Br)cc3)N(Nc3ccccc3)C2C(=O)N1c1ccccc1 (stereo unspecified)    YES
O=C(O)[C@]1(CCS(=O)(=O)c2ccccc2)N=C(c2ccc(OCCCO)cc2)O[C@@H]1c1ccccc1    YES
CCCNC(=O)[C@@]1(Sc2ccc(C)cc2)CC(=O)N(Cc2ccccc2)[C@@H]1c1ccc(CO)cc1I    YES
C[C@]12C(=O)N(CCCCCO)[C@@H]3C(=O)N(c4ccc(Cl)cc4)CC=CC31O[C@@H]1/C=C\CCCOC(=O)C12 (stereo partly specified)    NO
CC(C)CNC(=O)[C@@]1(C)c2ccccc2C(=O)N(Cc2ccccc2)[C@H]1c1ccc(CO)cc1    NO
CN1C(=O)C2C=CC(C(O)c3ccc(F)cc3)N(N3CCCCC3)C2C1=O (stereo unspecified)    YES
